The reported numbers originate from PubChem BioAssay (NCATS).

Here, each record is paired with measured activity change, negative = inhibition data.
test: NFAT Signaling Pathway (AID 444); settings: Jurkat NFAT-bla M1, carbachol, beta-lactamase ratio, 5 h; at 17.2 µM (top of the series) unless noted;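 further: carbachol stimulus at about its EC50 of 1 µM final; on the % scale 0 is the no-effect control and ±100 the full control effect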
Records with an inconclusive call do not appear. The source made the active and inactive calls. The call rests on the fitted dose curve; in most records, active means well fitted curve in either direction with a large enough effect (not every such curve was filed as active); inconclusive means small, poorly fitted or top-dose-only effect, or another doubt; inactive means flat fitted curve, though single readings scatter.

>  <smiles notation>
NC(=O)c1cccc(N)c1

>  <activity change, negative = inhibition>
1.89% [at 38 µM] (inactive)

$$$$
>  <smiles notation>
N[C@@H](C(=O)N[C@@H]1C(=O)N2C(C(=O)O)=C(Cl)CS[C@H]12)c1ccccc1

>  <activity change, negative = inhibition>
7.31% (inactive)

$$$$
>  <smiles notation>
Nc1[nH]c(=O)ncc1F

>  <activity change, negative = inhibition>
0.663% (inactive)

$$$$
>  <smiles notation>
CCc1cc(C(N)=S)ccn1

>  <activity change, negative = inhibition>
5.86% (inactive)

$$$$
>  <smiles notation>
OCc1ccc(-c2nn(Cc3ccccc3)c3ccccc23)o1

>  <activity change, negative = inhibition>
4.66% [at 38 µM] (inactive)

$$$$

Recorded result, COc1cc2ncnc(Nc3cccc(Cl)c3)c2cc1OC , activity change, negative = inhibition: 3.52% [at 38 µM] (inactive)

Input CC(C)(Sc1cc(C(C)(C)C)c(O)c(C(C)(C)C)c1)Sc1cc(C(C)(C)C)c(O)c(C(C)(C)C)c1 . Output activity change, negative = inhibition: 10.7% (inactive)

// recorded activity change, negative = inhibition for CNNCc1ccc(C(=O)NC(C)C)cc1 : -25.9% (inactive)

Measured activity change, negative = inhibition of CCC(=O)O[C@]1(C(=O)CCl)[C@@H](C)C[C@H]2[C@@H]3CCC4=CC(=O)C=C[C@]4(C)[C@@]3(F)[C@@H](O)C[C@@]21C : -24.5% (inactive)
